Assay: Tested in vitro for receptor binding affinity to 5-hydroxytryptamine 1D receptor in bovine caudate using [3H]5-HT radioligand
measured-metric: pIC50
Conceptually, pIC50 converts a concentration in mol/L into minus its log10.

Request: Param item = CN1CCC[C@@H]1Cc1c[nH]c2ccc(-n3cnc4cc(C#N)ccc43)cc12 [CP-161242] ; retrieve measured pIC50.
Result: 8.89

Request: Returns the measured pIC50 for the input compound. Input: CN(C)CCc1c[nH]c2ccc(-n3cnc4cccnc43)cc12
Result: 7.96

---

Experiment: Compound was tested for the inhibition of forskolin-stimulated adenylate cyclase at 5-hydroxytryptamine 1A receptor in guinea pig
Collected EC50 values appear next to each entry.
Give a bare numeral; the unit nM is implied.

[
  {
    "structure-as-smiles": "CN(C)CCc1c[nH]c2ccc(-n3cnc4cccnc43)cc12",
    "test-result": 460
  }
]

Request: Data request, read-out EC50, for CN1CCC[C@@H]1Cc1c[nH]c2ccc(-n3cnc4cc(C#N)ccc43)cc12
Result: 26
